# TESTED_ON: human glucagon receptor (human) (UniProt P47871)
# Sequence (P47871 26-477): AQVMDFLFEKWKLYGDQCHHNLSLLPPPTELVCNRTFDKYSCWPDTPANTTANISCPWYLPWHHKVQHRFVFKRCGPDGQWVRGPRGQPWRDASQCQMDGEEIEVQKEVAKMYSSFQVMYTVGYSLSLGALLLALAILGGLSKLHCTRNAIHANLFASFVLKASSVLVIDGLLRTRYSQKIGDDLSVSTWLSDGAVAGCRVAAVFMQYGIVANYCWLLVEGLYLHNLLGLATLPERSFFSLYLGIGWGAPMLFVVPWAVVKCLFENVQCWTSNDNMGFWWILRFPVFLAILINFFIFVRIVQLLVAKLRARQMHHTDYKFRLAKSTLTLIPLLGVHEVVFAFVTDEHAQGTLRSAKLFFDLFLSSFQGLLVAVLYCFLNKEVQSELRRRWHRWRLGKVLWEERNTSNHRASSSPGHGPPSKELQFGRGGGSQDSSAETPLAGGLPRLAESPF
# TEST: cell-based or functional assay
Non-standard residues stand in square brackets, D forms with d. No end group written: not given here. NMeY = CN[C@@H](Cc1ccc(O)cc1)C(=O)O; αMeF = C[C@](N)(Cc1ccccc1)C(=O)O; Aib = CC(C)(N)C(=O)O
ASSAY_METRIC: cAMP Rel EC50 (1% HSA) (µM)
I only need the number, in µM, no unit after it.

BINDER: [NMeY][Aib]QGT[αMeF]TSDYSILLDKQAAKAFVQWLIEGGPSSGEPPPSEG-NH2 (not fully specified (residue 20)) [Example 302]
UNIT: µM
cAMP Rel EC50 (1% HSA): 1.37

BINDER: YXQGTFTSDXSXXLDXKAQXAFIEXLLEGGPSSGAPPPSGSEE (non-natural residues, Glu-γGlu-C18 diacid acylation, C-terminal amide; synthetic construct; SITE 2: note = 2-Aminoisobutyric Acid; SITE 10: note = 3-(4-Pyridyl)-L-alanine; SITE 12: note = L-ornithine; SITE 13: note = alpha-methyl-leucine; SITE 16: note = L-ornithine; SITE 17: note = Lysine is chemically modified through conjugation of the epsilon-amino group of the Lys) [Example 1066]
UNIT: µM
cAMP Rel EC50 (1% HSA): 4.26

// moving on: another record for cAMP Rel EC50 (1% HSA)
INPUT: Recorded cAMP Rel EC50 (1% HSA) for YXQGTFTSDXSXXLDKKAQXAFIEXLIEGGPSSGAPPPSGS (synthetic construct; SITE 2: note = 2-Aminoisobutyric Acid; SITE 10: note = 3-(4-Pyridyl)-L-alanine; SITE 12: note = L-ornithine; SITE 13: note = alpha-methyl-leucine; SITE 17: note = Lysine is chemically modified through conjugation of the epsilon-amino group of the Lysine side chain with (2-[2-(2-) [Example 497] , please?
OUTPUT: 0.418
